Hey, just so you know, these numbers are from ChEMBL document CHEMBL1909046.

- test protocol: DRUGMATRIX: Calcium Channel Type L, Benzothiazepine radioligand binding (ligand: [3H] Diltiazem)
- Assay type: cell membranes, Rattus norvegicus, Wistar, Brain, Membrane
- test context: Not Active = under 50% inhibition at 10 µM

- substance: "SODIUM NITROPRUSSIDE"
  IC50: "Not Active"
- substance: "LIPOPOLYSACCHARIDE E. COLI O55:B5"
  IC50: "Not Active"
- substance: "LEAD (II) ACETATE"
  IC50: "Not Active"
- substance: "CADMIUM ACETATE"
  IC50: "Not Active"

* * *

- test target: UniProt P50406
- Sequence (P50406 whole entry): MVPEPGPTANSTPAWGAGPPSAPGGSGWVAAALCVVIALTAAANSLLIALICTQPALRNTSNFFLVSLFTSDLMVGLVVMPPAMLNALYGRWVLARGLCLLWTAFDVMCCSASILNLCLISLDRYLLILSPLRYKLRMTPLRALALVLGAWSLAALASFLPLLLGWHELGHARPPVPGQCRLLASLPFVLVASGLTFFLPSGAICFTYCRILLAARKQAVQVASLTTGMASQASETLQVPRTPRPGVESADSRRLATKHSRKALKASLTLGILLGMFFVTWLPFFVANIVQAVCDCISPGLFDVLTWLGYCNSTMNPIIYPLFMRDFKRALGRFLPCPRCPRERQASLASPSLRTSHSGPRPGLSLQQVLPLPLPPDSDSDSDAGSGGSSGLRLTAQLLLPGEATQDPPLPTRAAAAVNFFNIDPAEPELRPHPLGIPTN
- Assay type: cell membranes, HeLa, Membrane
- test context: read-out: IC50
pIC50: −log10 of the molar value.

- compound: "CN1CCN(CCCN2c3ccccc3Sc3ccc(Cl)cc32)CC1"
  pIC50: 6.57
- compound: "CC(C)[C@@]1(NC(=O)[C@@H]2C[C@@H]3c4cccc5[nH]cc(c45)C[C@H]3N(C)C2)O[C@@]2(O)[C@@H]3CCCN3C(=O)[C@H](Cc3ccccc3)N2C1=O.CS(=O)(=O)O [DIHYDROERGOCRISTINE MESYLATE]"
  pIC50: 7.38
- compound: "CC[C@@H](CO)NC(=O)[C@@H]1C=C2c3cccc4[nH]cc(c34)C[C@H]2N(C)C1"
  pIC50: 8.60
- compound: "CC(C)C(=O)Nc1ccc([N+](=O)[O-])c(C(F)(F)F)c1 [FLUTAMIDE]"
  pIC50: 4.75
- compound: "CN(C)CCCN1c2ccccc2Sc2ccccc21"
  pIC50: 6.56
- compound: "CC/C(=C(\\c1ccccc1)c1ccc(OCCN(C)C)cc1)c1ccccc1"
  pIC50: 5.57
- compound: "CCCCc1oc2ccccc2c1C(=O)c1cc(I)c(OCCN(CC)CC)c(I)c1"
  pIC50: 4.71
- compound: "CCCN1C[C@H](CSC)C[C@@H]2c3cccc4[nH]cc(c34)C[C@H]21 [PERGOLIDE]"
  pIC50: 7.41
- compound: "CC(C)[C@H]1C(=O)N2CCC[C@H]2[C@]2(O)O[C@](NC(=O)[C@@H]3C=C4c5cccc6[nH]cc(c56)C[C@H]4N(C)C3)(C(C)C)C(=O)N12"
  pIC50: 7.82
